All values here come from ChEMBL document CHEMBL1909046.

system tested: Alpha-1A adrenergic receptor (Rattus norvegicus, UniProt P43140)
Sequence (P43140 whole entry): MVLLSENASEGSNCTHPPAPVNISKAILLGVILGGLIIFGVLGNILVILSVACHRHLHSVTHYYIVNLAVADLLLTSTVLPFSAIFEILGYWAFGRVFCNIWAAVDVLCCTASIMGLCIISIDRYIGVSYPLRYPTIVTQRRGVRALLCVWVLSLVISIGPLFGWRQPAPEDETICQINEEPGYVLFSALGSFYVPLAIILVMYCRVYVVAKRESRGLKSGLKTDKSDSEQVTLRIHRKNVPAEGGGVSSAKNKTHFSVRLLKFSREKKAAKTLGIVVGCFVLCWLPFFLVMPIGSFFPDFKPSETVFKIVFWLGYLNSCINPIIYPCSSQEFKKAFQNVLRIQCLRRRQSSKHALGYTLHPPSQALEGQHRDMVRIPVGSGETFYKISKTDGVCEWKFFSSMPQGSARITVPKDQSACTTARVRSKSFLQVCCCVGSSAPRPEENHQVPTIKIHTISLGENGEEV
experiment notes: DRUGMATRIX: Alpha-1A adrenergic receptor radioligand binding (ligand: prazosin)
Type: cell membranes, Wistar, Submaxillary gland, Membrane
assay conditions: Not Active = under 50% inhibition at 10 µM; read-out: IC50
quantity name: pIC50
Bear in mind: pIC50 is minus log10 of a mol/L concentration; give just that figure.

compound | pIC50
CN1C[C@H](C(=O)N[C@]2(C)O[C@@]3(O)[C@@H]4CCCN4C(=O)[C@H](Cc4ccccc4)N3C2=O)C[C@@H]2c3cccc4[nH]cc(c34)C[C@H]21 [DIHYDROERGOTAMINE] | 8.30
CC(C)C[C@H]1C(=O)N2CCC[C@H]2[C@]2(O)O[C@](NC(=O)[C@@H]3C=C4c5cccc6[nH]c(Br)c(c56)C[C@H]4N(C)C3)(C(C)C)C(=O)N12 | 8.16
OCCN1CCN(CCCN2c3ccccc3Sc3ccc(C(F)(F)F)cc32)CC1 | 7.62

(Q) Hello, please tell me recorded pIC50 for this one: CC(CCc1ccc(O)cc1)NCCc1ccc(O)c(O)c1 (stereo unspecified)
(A) 6.96

(Q) Give reported pIC50 value for `O=c1n(CCCN2CCN(c3cccc(Cl)c3)CC2)nc2ccccn12`
(A) 6.93

(Q) Please give the documented pIC50 of `O=c1[nH]c2ccccc2n1CCCN1CCC(n2c(=O)[nH]c3cc(Cl)ccc32)CC1`
(A) 6.55
